Tgt: Glucose-dependent insulinotropic receptor (Homo sapiens)
Assay Procedure: off-target GPR119 activation – cell-based, PathHunter beta-arrestin, luminescence, set 2, counter-screen for GPR151 activator project, confirmation (AID 1508607);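 note: counterscreen in GPR119 cells for hits from a GPR151 activator screen; 0% = median of sample wells and 100% = wells given EA reagent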
Conditions: GPR119 PathHunter beta-arrestin cells, 90 min, at 11.2 µM, active compounds read high
Screen size: about 2,300 compounds; about 20 (0.9%) were called active. Only a selection was taken, and actives are over-represented in it overall.
Quantity Name: activation (%)
Quick note: give the figure in %, leave out the unit.

# example entries with known answers
COCCCNC(=O)/C(=C\c1ccco1)NC(=O)c1ccc(C)cc1 ... -2.09
CC(=O)c1ccc(NCN2C(=O)C3CC=C(Cl)CC3C2=O)cc1 (stereo unspecified) ... 2.21

Data request: Field request: activation | item: "COc1ccc(NC(=O)N2CCC(CN3CCc4ccccc4C3)CC2)cc1"
Data returned: -2.3

Data request: Now this one: O=C(/C=C/c1ccccn1)NCCN1Cc2ccccc2OC(c2ccccc2)C1 (stereo unspecified)
Data returned: 1.44

Data request: Now this one: "Cc1ccc(Nc2nc(Cl)nc(N3CCOCC3)n2)cc1Cl"
Data returned: -1.69
